# targetOrSystem: serotonin 2 (5-HT2) receptor (Rattus norvegicus, UniProt P14842)
# Construct: A crude synaptosome fraction was separated from hippocampus; from tissue; host or cells: hippocampus of Wistar rat, crude synaptosome fraction
# Sequence (P14842 whole entry): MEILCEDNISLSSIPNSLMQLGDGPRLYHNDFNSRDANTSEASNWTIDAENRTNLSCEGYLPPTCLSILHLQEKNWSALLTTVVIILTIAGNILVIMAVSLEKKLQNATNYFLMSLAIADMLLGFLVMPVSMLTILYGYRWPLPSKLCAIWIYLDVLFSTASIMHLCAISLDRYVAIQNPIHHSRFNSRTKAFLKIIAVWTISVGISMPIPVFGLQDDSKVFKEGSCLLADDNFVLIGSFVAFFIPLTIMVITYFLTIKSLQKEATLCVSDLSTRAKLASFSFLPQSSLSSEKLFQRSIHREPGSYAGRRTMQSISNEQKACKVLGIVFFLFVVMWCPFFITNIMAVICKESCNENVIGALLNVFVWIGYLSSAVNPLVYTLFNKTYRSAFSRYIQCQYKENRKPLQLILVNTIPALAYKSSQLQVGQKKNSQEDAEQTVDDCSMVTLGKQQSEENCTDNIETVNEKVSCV
# assayDetails: Affinity for serotonin 2 receptor ([3H]ketanserin binding, crude synaptosome fraction of hippocampus)
# Parameters: species or system Wistar rat
# protocolConditions: tritiated ketanserin 0.2 nM, pH 7.7, 37° C., 20 minutes, read-out: binding 5-HT2, inhibition constant (Ki value)
measuredAttribute: pKi
Please express pKi as -log10 of the molar concentration.

Summary for this compound, CC(=O)NCCc1ccc(CCN2CCC(c3noc4cc(F)ccc34)CC2)s1 : pKi is 9.89

Summary for this compound, CC(=O)NCc1ccc(CCN2CCC(c3noc4cc(F)ccc34)CC2)s1 : pKi is 9.19

Summary for this compound, CC(=O)Nc1ccc(SCCCN2CCC(c3noc4cc(F)ccc34)CC2)s1 : pKi is 9.35

Summary for this compound, CC(=O)NCc1ccc(C(=O)CCCN2CCC(c3noc4cc(F)ccc34)CC2)s1 : pKi is 10.23

Summary for this compound, CC(=O)c1ccc(SCCCN2CCN(c3nsc4ccccc34)CC2)s1 : pKi is 9.23

Summary for this compound, CC(=O)NCCc1sc(CCN2CCC(c3noc4cc(F)ccc34)CC2)cc1Br : pKi is 10.33

Summary for this compound, CC(=O)NCc1ccc(CCCCN2CCC(c3noc4cc(F)ccc34)CC2)s1 : pKi is 8.68

Summary for this compound, CC(=O)NCc1sc(CCN2CCC(c3noc4cc(F)ccc34)CC2)cc1C : pKi is 10.00
